Molecular target: estrogen receptor ERα Y537S mutant-type (Homo sapiens (Human), UniProt P03372, Y537S)
Sequence (P03372 296-554 Y537S): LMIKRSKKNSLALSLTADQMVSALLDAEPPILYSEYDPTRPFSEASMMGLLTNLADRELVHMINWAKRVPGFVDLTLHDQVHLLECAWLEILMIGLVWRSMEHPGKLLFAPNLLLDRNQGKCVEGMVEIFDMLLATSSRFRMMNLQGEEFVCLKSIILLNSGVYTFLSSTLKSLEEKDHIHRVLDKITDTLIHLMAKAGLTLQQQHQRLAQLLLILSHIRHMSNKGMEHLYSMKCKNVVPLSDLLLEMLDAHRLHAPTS
Assay: Covalent modification of ERα Y537S mutant-type LBD by high-resolution mass spectrometry
Format: binding
Conditions: after 24 hours; 2 μM protein, 10 μM compound, 4° C.
Observed Property: Covalent modification effect on the estrogen receptor ERα Y537S mutant-type (%)

O=C(/C=C/CN1CCC[C@@H](Nc2ccc(/C(=C(/CC(F)(F)F)c3ccccc3)c3ccc4[nH]nc(F)c4c3)cn2)C1)N1CCOCC1 [Example 32]; 95
CN(C)C(=O)/C=C/CN1CCC[C@@H](Nc2ccc(/C(=C(/CC(F)(F)F)c3ccccc3)c3ccc4[nH]nc(F)c4c3)cn2)C1 [Example 31]; 83
O=C(/C=C/CN[C@H]1CCCN(c2ccc(/C(=C(/CC(F)(F)F)c3ccccc3)c3ccc4[nH]nc(F)c4c3)cn2)C1)N1CCOCC1 [Example 38]; 96
